- TGT: NPM/ALK (Nucleophosmin/ALK tyrosine kinase receptor) (Homo sapiens)
- Sequence (Q9UM73 whole entry): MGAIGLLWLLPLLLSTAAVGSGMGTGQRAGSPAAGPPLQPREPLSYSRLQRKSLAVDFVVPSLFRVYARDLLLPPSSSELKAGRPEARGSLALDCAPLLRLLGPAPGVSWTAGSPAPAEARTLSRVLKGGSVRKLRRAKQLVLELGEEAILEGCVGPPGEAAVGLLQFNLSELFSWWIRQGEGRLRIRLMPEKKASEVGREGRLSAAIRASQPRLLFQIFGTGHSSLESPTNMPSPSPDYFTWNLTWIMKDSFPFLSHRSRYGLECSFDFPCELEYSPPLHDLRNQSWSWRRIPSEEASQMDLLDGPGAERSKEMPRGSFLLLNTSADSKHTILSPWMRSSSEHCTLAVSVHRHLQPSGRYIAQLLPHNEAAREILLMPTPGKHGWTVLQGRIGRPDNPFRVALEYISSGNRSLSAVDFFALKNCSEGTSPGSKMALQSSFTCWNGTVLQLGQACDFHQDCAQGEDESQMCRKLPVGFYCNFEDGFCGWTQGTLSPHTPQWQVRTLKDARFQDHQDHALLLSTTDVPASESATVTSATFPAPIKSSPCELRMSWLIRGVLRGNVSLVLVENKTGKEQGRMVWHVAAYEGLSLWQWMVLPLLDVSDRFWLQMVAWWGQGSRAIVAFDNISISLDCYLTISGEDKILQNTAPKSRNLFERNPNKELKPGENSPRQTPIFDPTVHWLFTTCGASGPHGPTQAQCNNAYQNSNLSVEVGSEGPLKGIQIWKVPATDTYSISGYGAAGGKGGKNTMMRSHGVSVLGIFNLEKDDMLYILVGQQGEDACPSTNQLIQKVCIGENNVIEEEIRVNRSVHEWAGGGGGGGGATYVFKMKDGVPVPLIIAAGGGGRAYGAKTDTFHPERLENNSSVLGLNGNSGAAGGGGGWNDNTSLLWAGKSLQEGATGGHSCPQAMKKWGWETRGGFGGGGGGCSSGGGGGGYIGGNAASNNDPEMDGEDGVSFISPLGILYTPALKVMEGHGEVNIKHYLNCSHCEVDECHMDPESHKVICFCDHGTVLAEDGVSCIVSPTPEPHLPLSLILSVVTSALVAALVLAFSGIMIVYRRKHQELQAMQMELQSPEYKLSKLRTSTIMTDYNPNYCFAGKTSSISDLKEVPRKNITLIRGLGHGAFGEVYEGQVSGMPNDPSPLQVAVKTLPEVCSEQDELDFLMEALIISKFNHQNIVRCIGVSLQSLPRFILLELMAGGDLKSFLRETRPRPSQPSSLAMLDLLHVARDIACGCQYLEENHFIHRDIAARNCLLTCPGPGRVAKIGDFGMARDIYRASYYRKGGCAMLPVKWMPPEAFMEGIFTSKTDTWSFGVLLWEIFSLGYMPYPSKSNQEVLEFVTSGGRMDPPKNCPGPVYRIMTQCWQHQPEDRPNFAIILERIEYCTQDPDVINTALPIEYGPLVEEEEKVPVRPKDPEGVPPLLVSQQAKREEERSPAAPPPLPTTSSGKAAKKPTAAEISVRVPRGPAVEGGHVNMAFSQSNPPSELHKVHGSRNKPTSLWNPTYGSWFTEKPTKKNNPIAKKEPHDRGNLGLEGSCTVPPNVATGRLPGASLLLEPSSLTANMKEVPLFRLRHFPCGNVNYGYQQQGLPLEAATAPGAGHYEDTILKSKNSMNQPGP
- Sequence (P06748 whole entry, further chain): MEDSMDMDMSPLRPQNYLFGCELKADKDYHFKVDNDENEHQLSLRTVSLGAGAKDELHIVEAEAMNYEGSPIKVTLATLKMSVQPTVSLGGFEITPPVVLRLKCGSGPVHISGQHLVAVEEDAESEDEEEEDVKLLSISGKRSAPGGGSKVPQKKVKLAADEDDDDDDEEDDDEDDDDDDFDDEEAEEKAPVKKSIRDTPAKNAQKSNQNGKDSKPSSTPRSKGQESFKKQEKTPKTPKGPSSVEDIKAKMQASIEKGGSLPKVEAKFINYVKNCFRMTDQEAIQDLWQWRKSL

- COMPOUND: "O=c1oc2c(O)c(O)cc3c(=O)oc4c(O)c(O)cc1c4c23"
  IC50: "> 40 µM"

###

- TGT: Tyrosine-protein kinase Lyn (Rattus norvegicus, UniProt Q07014)
- Sequence (Q07014 whole entry): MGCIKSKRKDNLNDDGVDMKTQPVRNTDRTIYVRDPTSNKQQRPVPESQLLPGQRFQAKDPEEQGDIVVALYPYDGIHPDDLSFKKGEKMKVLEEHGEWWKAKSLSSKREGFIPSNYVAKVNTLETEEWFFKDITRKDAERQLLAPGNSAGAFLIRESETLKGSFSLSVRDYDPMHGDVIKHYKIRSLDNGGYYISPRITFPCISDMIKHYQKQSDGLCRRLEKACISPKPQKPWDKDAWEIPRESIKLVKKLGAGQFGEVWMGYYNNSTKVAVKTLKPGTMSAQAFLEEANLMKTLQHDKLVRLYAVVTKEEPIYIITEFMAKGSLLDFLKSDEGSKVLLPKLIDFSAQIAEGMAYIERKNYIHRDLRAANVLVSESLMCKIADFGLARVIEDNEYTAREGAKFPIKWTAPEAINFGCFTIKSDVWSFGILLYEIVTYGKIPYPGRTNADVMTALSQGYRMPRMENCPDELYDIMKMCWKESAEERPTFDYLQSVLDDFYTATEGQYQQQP

- COMPOUND: "O=c1oc2c(O)c(O)cc3c(=O)oc4c(O)c(O)cc1c4c23 [ELLAGIC ACID]"
  IC50: "2900 nM"

###

- TGT: UniProt P49841
- Sequence (P49841 whole entry): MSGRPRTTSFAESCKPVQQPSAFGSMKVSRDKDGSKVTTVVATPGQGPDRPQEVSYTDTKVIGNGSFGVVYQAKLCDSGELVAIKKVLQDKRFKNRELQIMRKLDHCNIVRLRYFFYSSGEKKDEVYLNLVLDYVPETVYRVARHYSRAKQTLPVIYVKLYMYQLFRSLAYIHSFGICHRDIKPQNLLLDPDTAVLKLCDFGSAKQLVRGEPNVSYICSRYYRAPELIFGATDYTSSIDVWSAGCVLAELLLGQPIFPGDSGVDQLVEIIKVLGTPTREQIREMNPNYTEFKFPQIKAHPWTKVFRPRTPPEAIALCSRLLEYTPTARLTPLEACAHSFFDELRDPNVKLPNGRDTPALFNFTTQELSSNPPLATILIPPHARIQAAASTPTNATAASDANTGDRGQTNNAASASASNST
- ASSAY METHOD TEXT: Inhibition of human recombinant GSK3-beta
pIC50: −log10 of the molar value.
EXPERIMENTAL READOUT: pIC50

- COMPOUND: "O=c1oc2c(O)c(O)cc3c(=O)oc4c(O)c(O)cc1c4c23"
  OBSERVED RESULT: 5.12
